Target: PfFabZ (Plasmodium falciparum, UniProt Q965D7)
Sequence (Q965D7 19-230): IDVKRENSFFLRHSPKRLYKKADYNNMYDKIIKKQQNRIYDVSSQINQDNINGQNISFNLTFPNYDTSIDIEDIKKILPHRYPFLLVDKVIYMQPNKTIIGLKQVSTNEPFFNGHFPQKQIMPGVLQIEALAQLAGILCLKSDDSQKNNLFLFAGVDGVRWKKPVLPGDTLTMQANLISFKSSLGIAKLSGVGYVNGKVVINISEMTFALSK
attribute_measured: pIC50
The value called pIC50 is obtained by taking minus log10 of the concentration in mol/L.

CCCCCCCCCCCC#CC(=O)O :: 4.81

Please turn your attention to the following entry.
// query Give the measured pIC50 of CCCCCCCCCCCCCCCC#CC(=O)O .
// result 6.00

---

target: PfFabI (Plasmodium falciparum, UniProt Q9BH77); assay: Inhibition of PfFabI; type: biochemical
Sequence (Q9BH77 22-432): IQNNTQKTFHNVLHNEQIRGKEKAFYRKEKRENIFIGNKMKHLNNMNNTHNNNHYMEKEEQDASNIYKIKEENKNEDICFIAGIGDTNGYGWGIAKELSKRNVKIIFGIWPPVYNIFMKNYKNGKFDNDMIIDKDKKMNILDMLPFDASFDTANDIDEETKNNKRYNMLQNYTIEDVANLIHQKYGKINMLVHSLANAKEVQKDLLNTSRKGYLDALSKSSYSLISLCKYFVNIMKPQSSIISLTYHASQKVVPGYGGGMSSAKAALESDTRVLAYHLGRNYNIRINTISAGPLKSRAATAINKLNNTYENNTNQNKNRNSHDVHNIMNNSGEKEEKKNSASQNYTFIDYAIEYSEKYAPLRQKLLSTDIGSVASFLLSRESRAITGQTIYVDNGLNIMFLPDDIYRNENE
attribute_measured: IC50 (µM)
// note: answer is a bare numeric in µM

CCCCCCCCCCCCCCCC#CC(=O)O [2-ODA, 2-octadecynoic acid] :: 1.1

Please turn your attention to the following entry.
// query Give IC50 (PfFabI (Plasmodium falciparum, UniProt Q9BH77)) of the following compound: CCCCCCCCCCCC#CC(=O)O [2-TDA, 2-tetradecynoic acid]
// result 5.3
